Target: Recombinant STAT6 protein (STAT6(W123-T658)) (Homo sapiens)
Construct: Recombinant STAT6 protein (STAT6(W123-T658))
Assay: STAT6 Fluorescence Polarization (FP) Assay
Conditions: STAT6(W123-T658) 250 nM, probe 5-FAM-ApYKPFQDLI-NH2 2 nM, 45-minute incubation
Method: STAT6 Fluorescence Polarization (FP) Assay An FP assay was developed to determine IC50 values for test substances. […] Reaction components were mixed, and FP was measured after 45-minute incubation at room temperature using a Tecan Spark multimode plate reader. FP signal (mP) was plotted against the log concentration of the test substances and IC50 values were calculated by nonlinear regression analysis using GraphPad Prism software. […]
PROPERTY_LABEL: IC50

Some compounds with known IC50 results, for comparison:
Cc1ccc2[nH]nc(C(=O)N3CC[C@H]4CC[C@@H](C(=O)N5CC(c6cc[nH]c(=O)c6)CC56CC6)N4C(=O)[C@@H](NC(=O)c4ccc5ccc(C(F)(F)P(=O)(O)O)cc5c4)C3)c2c1 (stereo partly drawn) [Compound 367] : ≤ 0.3 µM
CNC(=O)[C@@H]1CC[C@@H]2CCN(Cc3ccn4ccnc4c3)C[C@H](NC(=O)c3cc4cc(C(F)(F)P(=O)(O)O)ccc4s3)C(=O)N21 [Compound 272] : 3 to 30 µM

Please look at the following compound next.
QUERY: Please report the recorded IC50 for CN(C(=O)[C@@H]1CC[C@@H]2CCN(C(=O)CCc3ccccc3)C[C@H](NC(=O)c3cc4cc(C(F)(F)P(=O)(O)O)ccc4[nH]3)C(=O)N21)c1ccccc1 [Compound 253] .
RESULT: ≤ 0.3 µM

---

target: Recombinant STAT3 protein (STAT3(G127-I722)) (Homo sapiens); construct: Recombinant STAT3 protein (STAT3(G127-I722)); test: STAT3 Fluorescence Polarization (FP) Assay; conditions: STAT3(G127-I722) 25 nM, probe 5-FAM-GpYLPQTV-NH2 2 nM, 45-minute incubation
PROPERTY_LABEL: IC50

Cc1ccc2onc(C(=O)N3CC[C@H]4CC[C@@H](C(=O)N5CCOCC5)N4C(=O)[C@@H](NC(=O)c4ccc5ccc(CP(=O)(O)O)nc5c4)C3)c2c1 [Compound 396] : > 10 µM
CCN(C)CCCN(C)C(=O)[C@@H]1CC[C@@H]2CCN(C(C)=O)C[C@H](NC(=O)c3cc4cc(C(F)(F)P(=O)(O)O)ccc4[nH]3)C(=O)N21 [Compound 33] : 1 to 10 µM
CC(=O)N1CC[C@H]2CC[C@@H](C(=O)N3CCC4C3CN4c3ccccc3)N2C(=O)[C@@H](NC(=O)c2cc3cc(C(F)(F)P(=O)(O)O)ccc3s2)C1 (some centres unmarked) [Compound 11] : 0.1 to 1 µM

QUERY: Please report the recorded IC50 for Cc1ccc2cc(C(=O)N3CC[C@H]4CC[C@@H](C(=O)N5CCOCC5)N4C(=O)[C@@H](NC(=O)c4ccc5ccc(C(F)P(=O)(O)O)cc5c4)C3)cc(Cl)c2n1 (some centres unmarked) [Compound 366] .
RESULT: > 10 µM

QUERY: Please report the recorded IC50 for CC(=O)N1CC[C@H]2CC[C@@H](C(=O)N3CCN(Cc4ccccc4)C(C#N)C3)N2C(=O)[C@@H](NC(=O)c2cc3cc(C(F)(F)P(=O)(O)O)ccc3s2)C1 (some centres unmarked) [Compound 62] .
RESULT: 1 to 10 µM

---

List of pIC50 values.
Target: Recombinant STAT6 protein (STAT6(W123-T658)) (Homo sapiens)
Construct: Recombinant STAT6 protein (STAT6(W123-T658))
Sequence (P42226 123-658): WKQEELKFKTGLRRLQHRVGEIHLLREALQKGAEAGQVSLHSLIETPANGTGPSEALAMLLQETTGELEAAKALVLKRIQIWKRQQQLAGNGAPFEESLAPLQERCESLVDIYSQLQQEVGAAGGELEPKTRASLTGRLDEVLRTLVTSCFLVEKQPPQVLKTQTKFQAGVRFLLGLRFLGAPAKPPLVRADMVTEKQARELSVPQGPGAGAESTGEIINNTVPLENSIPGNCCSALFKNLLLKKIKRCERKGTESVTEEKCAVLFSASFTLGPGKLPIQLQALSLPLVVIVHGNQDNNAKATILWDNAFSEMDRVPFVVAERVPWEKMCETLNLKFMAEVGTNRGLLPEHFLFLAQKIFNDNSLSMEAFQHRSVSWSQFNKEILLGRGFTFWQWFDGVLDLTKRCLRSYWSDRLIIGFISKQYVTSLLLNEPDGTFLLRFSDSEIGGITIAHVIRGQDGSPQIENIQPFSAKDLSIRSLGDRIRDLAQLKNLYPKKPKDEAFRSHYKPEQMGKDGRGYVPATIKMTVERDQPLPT
Assay: STAT6 Fluorescence Polarization (FP) Assay
Type: binding
Conditions: STAT6(W123-T658) 250 nM, probe 5-FAM-ApYKPFQDLI-NH2 2 nM, 45-minute incubation
pIC50: −log10 of the molar value.

Some compounds with known pIC50 results, for comparison:
C[C@H](C(=O)N1CC[C@H]2CC[C@@H](C(=O)N(C)c3ccccc3)N2C(=O)[C@@H](NC(=O)c2cc3cc(C(F)(F)P(=O)(O)O)ccc3[nH]2)C1)c1ccccc1 : 5.52 to 6.52
CC(=O)N1CC[C@H]2CC[C@@H](C(=O)Nc3ccc4cnccc4c3)N2C(=O)[C@@H](NC(=O)c2cc3cc(C(F)(F)P(=O)(O)O)ccc3s2)C1 : 5.52 to 6.52
CCCS(=O)(=O)N1CC[C@H]2CC[C@@H](C(=O)N3CCOCC3)N2C(=O)[C@@H](NC(=O)c2ccc3ccc(C(F)P(=O)(O)O)cc3c2)C1 (some centres unmarked) : 4.52 to 5.52
CC(=O)N1CC[C@H]2CC[C@@H](C(=O)Nc3ccc(-n4ccccc4=O)cc3)N2C(=O)[C@@H](NC(=O)c2cc3cc(C(F)(F)P(=O)(O)O)ccc3[nH]2)C1 : 4.52 to 5.52

Please look at the following compound next.
QUERY: Please report the recorded pIC50 for `CCC(=O)NCCCN(C)C(=O)[C@@H]1CC[C@@H]2CCN(C(C)=O)C[C@H](NC(=O)c3cc4cc(C(F)(F)P(=O)(O)O)ccc4[nH]3)C(=O)N21` .
RESULT: 5.52 to 6.52

---

biological target: Recombinant STAT3 protein (STAT3(G127-I722)) (Homo sapiens, UniProt P40763); construct: Recombinant STAT3 protein (STAT3(G127-I722)); test: STAT3 Fluorescence Polarization (FP) Assay; details: STAT3(G127-I722) 25 nM, probe 5-FAM-GpYLPQTV-NH2 2 nM, 45-minute incubation
Sequence (P40763 127-722): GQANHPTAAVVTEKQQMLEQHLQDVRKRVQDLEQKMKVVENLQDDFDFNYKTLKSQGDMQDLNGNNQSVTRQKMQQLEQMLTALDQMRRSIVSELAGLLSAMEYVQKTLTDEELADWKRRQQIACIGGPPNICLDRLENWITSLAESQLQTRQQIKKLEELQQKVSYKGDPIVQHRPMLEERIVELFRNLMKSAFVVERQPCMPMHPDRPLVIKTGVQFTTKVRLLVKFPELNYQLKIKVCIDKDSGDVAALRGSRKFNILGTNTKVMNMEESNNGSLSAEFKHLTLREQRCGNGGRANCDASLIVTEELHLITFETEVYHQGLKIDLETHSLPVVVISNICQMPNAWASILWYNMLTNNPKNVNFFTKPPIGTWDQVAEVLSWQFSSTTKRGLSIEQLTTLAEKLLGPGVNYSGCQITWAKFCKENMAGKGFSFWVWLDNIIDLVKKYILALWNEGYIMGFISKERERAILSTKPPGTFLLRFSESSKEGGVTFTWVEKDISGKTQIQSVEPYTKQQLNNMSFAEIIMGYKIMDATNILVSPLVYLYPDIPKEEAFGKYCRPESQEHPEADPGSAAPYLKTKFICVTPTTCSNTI
PROPERTY_LABEL: IC50

Some molecules with known IC50 results, for comparison:
CC(=O)N1CC[C@H]2CC[C@@H](C(=O)N3C[C@@H](C#N)[C@H](c4cc[nH]c(=O)c4)C3)N2C(=O)[C@@H](NC(=O)c2ccc3ccc(C(F)(F)P(=O)(O)O)cc3c2)C1 (single isomer, unassigned) : 1000 to 10000 nM
N#Cc1ccccc1-c1ccc(NC(=O)[C@@H]2CC[C@@H]3CCN(C(=O)Cc4ccccc4)C[C@H](NC(=O)c4cc5cc(C(F)(F)P(=O)(O)O)ccc5[nH]4)C(=O)N32)cc1 : 100 to 1000 nM
CN(C(=O)[C@@H]1CC[C@@H]2CCN(C(=O)c3ccccc3)C[C@H](NC(=O)c3cc4cc(C(F)(F)P(=O)(O)O)ccc4[nH]3)C(=O)N21)c1ccccc1 : > 10000 nM
CC(=O)N1CC[C@H]2CC[C@@H](C(=O)N(C)c3ccccc3)N2C(=O)[C@@H](NC(=O)/C=C/c2cccc(C(F)(F)P(=O)(O)O)c2)C1 : > 10000 nM
CC(=O)N1CC[C@H]2CC[C@@H](C(=O)N(C)c3ccc(N4CCOCC4)cc3)N2C(=O)[C@@H](NC(=O)c2cc3cc(C(F)(F)P(=O)(O)O)ccc3s2)C1 : 1000 to 10000 nM
N#C[C@H]1CN(C(=O)[C@@H]2CC[C@@H]3CN(C4CCC4)CC[C@H](NC(=O)c4ccc5ccc(C(F)(F)P(=O)(O)O)cc5c4)C(=O)N32)C[C@@H]1c1ccccc1 (relative stereo) : 1000 to 10000 nM

QUERY: Please report the recorded IC50 for `N#Cc1ccccc1-c1ccc(NC(=O)[C@@H]2CC[C@@H]3CCN(C(=O)Cc4ccccc4)C[C@H](NC(=O)c4cc5cc(C(F)(F)P(=O)(O)O)ccc5[nH]4)C(=O)N32)c(F)c1` .
RESULT: 1000 to 10000 nM

QUERY: Please report the recorded IC50 for CC(=O)N1CC[C@H]2CC[C@@H](C(=O)N(C)c3ccccc3)N2C(=O)[C@@H](NC(=O)c2cc3cc(C(C)(F)P(=O)(O)O)ccc3s2)C1 (stereo partly shown) .
RESULT: > 10000 nM

QUERY: Please report the recorded IC50 for CC(=O)N1CC[C@H]2CC[C@@H](C(=O)N3C[C@@H](O)[C@H](n4ccnn4)C3)N2C(=O)[C@@H](NC(=O)c2ccc3ccc(C(F)(F)P(=O)(O)O)cc3c2)C1 (relative stereo) .
RESULT: 1000 to 10000 nM

QUERY: Please report the recorded IC50 for COC(=O)N1CC[C@H]2CC[C@@H](C(=O)N3C[C@H](c4ccccc4)[C@@H](C#N)C3)N2C(=O)[C@@H](NC(=O)c2cc3cc(C(F)(F)P(=O)(O)O)ccc3s2)C1 (relative stereo) .
RESULT: 100 to 1000 nM

Provenance of the data: patent US20250179103A1
